system: CP268; experiment: qHTS profiling for inhibitors of Plasmodium falciparum proliferation (AID 504749); also: nearly all actives have a fitted effect of over 60% in size; settings: P. falciparum in erythrocytes, SYBR Green DNA, 72 h; series mostly up to 12.8 µM
Inconclusive results are not listed. Calls of active or inactive are those of the source. Calls follow the shape of the dose curve; as a rule, active = well fitted inhibition curve with a large enough effect; inconclusive = small, poorly fitted or top-dose-only effect; inactive = flat fitted curve, though single readings scatter. Bridge positions count the residues as written; N and C are the ends. Square brackets hold non-standard residues; d marks the D form. Peptide text beside a SMILES is read from it. * marks the point of attachment. Ileψ(thiazoline)Cys = CC[C@H](C)[C@H](N)C1=N[C@H](C(=O)*)CS1; d(aIle) = CC[C@H](C)[C@@H](N)C(=O)O; dOrn = NCCC[C@@H](N)C(=O)O
Write down one outcome, taken from TRUE (active), FALSE (inactive)

## Input What was the test verdict on NS(=O)(=O)c1cc2c(cc1Cl)N[C@@H](C(Cl)Cl)NS2(=O)=O ?
## Output FALSE

## Input What was the test verdict on C[C@@H]1C[C@H]2[C@@H]3C[C@H](F)C4=CC(=O)C=C[C@@]4(C)[C@]3(F)[C@H](O)C[C@]2(C)[C@@]1(O)C(=O)CO ?
## Output FALSE

## Input What was the test verdict on CC(C)(C)NC(=O)[C@@H]1CC[C@@H]2[C@@H]3CC[C@@H]4NC(=O)C=C[C@@]4(C)[C@H]3CC[C@]21C ?
## Output FALSE

## Input What was the test verdict on COc1ccc([C@@H]2CC(=O)c3c(O)cc(O[C@H]4O[C@@H](CO[C@H]5O[C@@H](C)[C@@H](O)[C@@H](O)[C@@H]5O)[C@@H](O)[C@@H](O)[C@@H]4O)cc3O2)cc1O ?
## Output FALSE

## Input What was the test verdict on Cn1nnnc1SCC1=C(C(=O)O)N2C(=O)[C@@H](NC(=O)[C@@H](O)c3ccccc3)[C@@H]2SC1 ?
## Output FALSE

## Input What was the test verdict on CC[C@H](C)[C@H](N)C1=N[C@H](C(=O)N[C@@H](CC(C)C)C(=O)N[C@@H](CCC(=O)O)C(=O)N[C@@H](C(=O)N[C@H]2CCCCNC(=O)[C@@H](CC(N)=O)NC(=O)[C@@H](CC(=O)O)NC(=O)[C@@H](Cc3cnc[nH]3)NC(=O)[C@@H](Cc3ccccc3)NC(=O)[C@@H]([C@@H](C)CC)NC(=O)[C@@H](CCCN)NC2=O)[C@@H](C)CC)CS1 ({Ileψ(thiazoline)Cys}-LE[d(aIle)]K[dOrn][d(aIle)][dF][dH][dD][dN]; lactam 4-C) ?
## Output FALSE

## Input What was the test verdict on C[C@H](O)Cn1cnc2c1c(=O)n(C)c(=O)n2C ?
## Output FALSE

## Input What was the test verdict on CC(=O)[C@@]1(O)CC[C@H]2[C@H]3C[C@@H](C)C4=CC(=O)C=C[C@]4(C)[C@@]3(F)[C@@H](O)C[C@]21C ?
## Output FALSE

## Input What was the test verdict on C[C@@]12CC[C@H]3[C@@H](CCC4=CC(=O)CC[C@]43C)[C@H]1CC[C@H]2C(=O)CO ?
## Output FALSE

## Input What was the test verdict on NC(=O)c1ccc[n+]([C@@H]2O[C@H](COP(=O)([O-])OP(=O)(O)OC[C@H]3O[C@@H](n4cnc5c(N)ncnc54)[C@@H](O)[C@@H]3O)[C@@H](O)[C@@H]2O)c1 ?
## Output FALSE

## Input What was the test verdict on CC[C@H](CO)NCCN[C@@H](CC)CO ?
## Output FALSE

## Input What was the test verdict on COc1cc(C2c3cc4c(cc3C(O[C@@H]3OC5COC(c6cccs6)OC5C(O)C3O)C3COC(=O)C23)OCO4)cc(OC)c1O (stereo not given in full) ?
## Output TRUE

## Input What was the test verdict on CC1(C)S[C@H]2C(NC(=O)[C@@H](N)c3ccc(O)cc3)C(=O)N2[C@@H]1C(=O)O (stereo not given in full) ?
## Output FALSE

## Input What was the test verdict on CC1(C)OC2CO[C@]3(COS(N)(=O)=O)OC(C)(C)OC3C2O1 (stereo not given in full) ?
## Output FALSE

## Input What was the test verdict on CC(=O)O[C@H]1C[C@@]2(C)[C@H](C[C@@H](O)[C@H]3[C@@]4(C)CC[C@@H](O)[C@@H](C)[C@H]4CC[C@@]32C)C1=C(CCC=C(C)C)C(=O)O ?
## Output FALSE

## Input What was the test verdict on COc1cc(N)c(Cl)cc1C(=O)N[C@H]1CCN(CCCOc2ccc(F)cc2)C[C@H]1OC ?
## Output FALSE

## Input What was the test verdict on CNC1CC(N)[C@H](O)[C@@H](O[C@@H]2OC(CO)C3OC4(OC(C(N)CO)C(O)C(O)C4O)O[C@@H]3[C@H]2O)C1O (stereo not given in full) ?
## Output FALSE

## Input What was the test verdict on CCN(CC)CCOC(=O)[C@@H](Cc1cccc2ccccc12)C[C@@H]1CCCO1 ?
## Output FALSE

## Input What was the test verdict on CN(C)CCOC(=O)[C@@H](c1ccccc1)C1(O)CCCC1 ?
## Output FALSE

## Input What was the test verdict on O=C(O)[C@@H]1[C@@H]2C[C@H]3c4[nH]c5ccccc5c4CCN3C[C@@H]2CC[C@@H]1O ?
## Output FALSE

## Input What was the test verdict on C#C[C@]1(O)CC[C@@H]2[C@H]3CCC4=CCCC[C@@H]4[C@@H]3CC[C@@]21C ?
## Output FALSE

## Input What was the test verdict on COC1OC(CO)C(OC2OC(C(=O)O)C(OC3OC(COS(=O)(=O)O)C(OC4OC(C(=O)O)C(OC5OC(CO)C(OC6OC(C(=O)O)C(OC7OC(COS(=O)(=O)O)C(OC8OC(C(=O)O)=C[C@H](O)C8OS(=O)(=O)O)C(O)C7NC(C)=O)[C@@H](O)C6O)C(O)C5NC(C)=O)[C@@H](O)C4O)C(O)C3NC(C)=O)[C@@H](O)C2O)C(O)C1NC(C)=O (stereo not given in full) ?
## Output FALSE

## Input What was the test verdict on C=C1c2c(Cl)ccc(O)c2C(O)=C2C(=O)[C@@]3(O)C(O)=C(C(N)=O)C(=O)[C@@H](N(C)C)[C@@H]3[C@@H](O)[C@H]12 ?
## Output FALSE

## Input What was the test verdict on NC(C(=O)O)[C@@H]1CC(Cl)=NO1 (stereo not given in full) ?
## Output TRUE

## Input What was the test verdict on CN(C/C=C\c1ccccc1)Cc1cccc2ccccc12 ?
## Output FALSE

## Input What was the test verdict on COc1ccc2cc1Oc1ccc(cc1)CC1c3c(cc4c(c3Oc3cc5c(cc3OC)CCN(C)C5C2)OCO4)CCN1C (stereo not given) ?
## Output TRUE

## Input What was the test verdict on NC(=O)c1cc[n+](CC2=C(C(=O)[O-])N3C(=O)[C@@H](NC(=O)Cc4cccs4)[C@@H]3SC2)cc1 ?
## Output FALSE

## Input What was the test verdict on CC1=C(C(=O)O)N2C(=O)[C@@H](NC(=O)[C@@H](N)c3ccc(O)cc3)[C@@H]2SC1 ?
## Output FALSE

## Input What was the test verdict on CCc1c(C)[nH]c2c1C(=O)[C@H](CN1CCOCC1)CC2 ?
## Output FALSE

## Input What was the test verdict on O=C(O)[C@@H]1CCCN1 ?
## Output FALSE

This collection of values is drawn from PubChem BioAssay (NCATS).
